assay: Pharmacokinetics after a single oral dose in rats; assay type: in vivo; settings: male, Sprague-Dawley; rat, po 2.2 mg/kg, 10% DMSO/10% cremophor/80% SWFI, plasma
quantity: Tmax (min)
One number for each entry, in min.

Answer with the recorded Tmax for the compound listed here: COc1ccnc(CNC(=O)c2cn(Cc3ccc(Cn4ccccc4=O)cc3)nc2C(F)(F)F)c1F 30
